# target_entity: Acetylcholinesterase (Rattus norvegicus)
# Sequence (P37136 whole entry): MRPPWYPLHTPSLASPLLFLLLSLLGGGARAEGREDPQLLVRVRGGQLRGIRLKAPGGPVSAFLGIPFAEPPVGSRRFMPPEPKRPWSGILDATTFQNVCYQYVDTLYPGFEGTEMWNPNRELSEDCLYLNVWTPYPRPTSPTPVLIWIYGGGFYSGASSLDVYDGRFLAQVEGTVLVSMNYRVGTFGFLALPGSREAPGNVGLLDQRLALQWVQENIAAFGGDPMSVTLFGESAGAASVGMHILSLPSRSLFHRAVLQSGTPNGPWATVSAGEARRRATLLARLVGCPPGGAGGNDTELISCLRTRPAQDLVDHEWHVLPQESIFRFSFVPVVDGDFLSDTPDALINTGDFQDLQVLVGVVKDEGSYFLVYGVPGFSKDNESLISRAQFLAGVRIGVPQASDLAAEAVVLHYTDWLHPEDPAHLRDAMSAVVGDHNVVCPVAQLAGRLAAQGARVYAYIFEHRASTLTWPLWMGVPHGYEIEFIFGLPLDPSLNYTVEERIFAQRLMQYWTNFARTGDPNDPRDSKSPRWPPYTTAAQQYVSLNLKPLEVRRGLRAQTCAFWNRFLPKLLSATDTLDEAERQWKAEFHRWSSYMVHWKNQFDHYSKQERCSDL
# measurement_protocol: Inhibition of AChE in rat brain cortex
# Format: tissue-based
pIC50: −log10 of the molar value.
Some compounds, each annotated with its measured pIC50.

compound	target_entity	inequality_operator	pIC50
C[N+](C)(C)[C@H](Cc1c[nH]c2ccccc12)C(=O)O.[Cl-]	Acetylcholinesterase (Rattus norvegicus)	=	6.62
CN(C)C(=O)Oc1cccc([N+](C)(C)C)c1.[Br-] [NEOSTIGMINE BROMIDE]	Acetylcholinesterase (Rattus norvegicus)	=	6.19
C[N+](C)(C)[C@@H](Cc1c[nH]c2ccccc12)C(=O)O.[Cl-]	Acetylcholinesterase (Rattus norvegicus)	<	3.00
